# particulars: in n-butanol, 298.15 K
test-readout: solubility (mole fraction)
Enter a number only.

## Task So what does the record say about solubility (mole fraction) for C[C@@H](Oc1ccc(Oc2nc3ccc(Cl)cc3o2)cc1)C(=O)N(C)c1ccccc1F ?
## Result 0.0183

====

# particulars: in isobutanol, 293.15 K
test-readout: solubility (mole fraction)
Please reply with the number alone, leaving off any unit.

## Task Endpoint output: solubility (mole fraction) of C[C@@H](Oc1ccc(Oc2nc3ccc(Cl)cc3o2)cc1)C(=O)N(C)c1ccccc1F . Value?
## Result 0.00921

====

# particulars: in n-propanol, 303.15 K
test-readout: solubility (mole fraction)
Just the number, please.

## Task Please report the recorded solubility (mole fraction) for C[C@@H](Oc1ccc(Oc2nc3ccc(Cl)cc3o2)cc1)C(=O)N(C)c1ccccc1F .
## Result 0.0209

====

# particulars: in isopentanol, 283.15 K
test-readout: solubility (mole fraction)

## Task Return reported solubility (mole fraction); argument: C[C@@H](Oc1ccc(Oc2nc3ccc(Cl)cc3o2)cc1)C(=O)N(C)c1ccccc1F
## Result 0.00724

====

# particulars: in sec-butanol, 298.15 K
test-readout: solubility (mole fraction)

## Task Which value of solubility (mole fraction) has been reported for C[C@@H](Oc1ccc(Oc2nc3ccc(Cl)cc3o2)cc1)C(=O)N(C)c1ccccc1F in the records?
## Result 0.0122

====

# particulars: in n-butanol, 288.15 K
test-readout: solubility (mole fraction)
# answer = number (no unit)

## Task Requested field: solubility (mole fraction). Item: C[C@@H](Oc1ccc(Oc2nc3ccc(Cl)cc3o2)cc1)C(=O)N(C)c1ccccc1F
## Result 0.0109
